Test system: PPARa:RXRa (NR concentration 270 nM, RXRa partner concentration 90 nM)
Assay: PBM binding z-score (relative to random genomic background probes); higher = stronger binding; sequences stand for … in GC…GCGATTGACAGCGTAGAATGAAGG
Respond with yes (1) for PBM binding z-score values of 4 and above, no (0) for values below.

Can `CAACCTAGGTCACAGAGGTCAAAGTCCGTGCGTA` be said to have PBM binding z-score at or above 4? yes (1)

Can `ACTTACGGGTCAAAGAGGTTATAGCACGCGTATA` be said to have PBM binding z-score at or above 4? yes (1)

Can `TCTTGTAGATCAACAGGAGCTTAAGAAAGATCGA` be said to have PBM binding z-score at or above 4? no (0)

Can `TCTGCTAGTTCAACGATGGTCAGCTAATCTGCTA` be said to have PBM binding z-score at or above 4? no (0)

Can `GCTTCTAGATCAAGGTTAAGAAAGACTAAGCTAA` be said to have PBM binding z-score at or above 4? no (0)

Can `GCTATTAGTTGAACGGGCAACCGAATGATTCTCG` be said to have PBM binding z-score at or above 4? no (0)

Can `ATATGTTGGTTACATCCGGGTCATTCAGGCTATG` be said to have PBM binding z-score at or above 4? no (0)

Can `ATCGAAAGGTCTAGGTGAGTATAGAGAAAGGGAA` be said to have PBM binding z-score at or above 4? no (0)

Can `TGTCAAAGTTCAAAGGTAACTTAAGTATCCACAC` be said to have PBM binding z-score at or above 4? yes (1)

Can `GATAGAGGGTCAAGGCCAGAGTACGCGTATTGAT` be said to have PBM binding z-score at or above 4? yes (1)

Can `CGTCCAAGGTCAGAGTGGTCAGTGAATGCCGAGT` be said to have PBM binding z-score at or above 4? no (0)

Can `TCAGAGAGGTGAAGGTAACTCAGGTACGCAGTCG` be said to have PBM binding z-score at or above 4? no (0)

Can `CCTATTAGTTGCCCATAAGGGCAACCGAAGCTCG` be said to have PBM binding z-score at or above 4? no (0)

Can `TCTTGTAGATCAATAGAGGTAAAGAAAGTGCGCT` be said to have PBM binding z-score at or above 4? no (0)

Can `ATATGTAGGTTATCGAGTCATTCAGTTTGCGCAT` be said to have PBM binding z-score at or above 4? no (0)

Can `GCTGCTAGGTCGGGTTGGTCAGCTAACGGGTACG` be said to have PBM binding z-score at or above 4? no (0)

Can `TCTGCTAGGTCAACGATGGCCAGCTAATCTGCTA` be said to have PBM binding z-score at or above 4? no (0)

Can `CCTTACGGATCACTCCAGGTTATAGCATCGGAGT` be said to have PBM binding z-score at or above 4? no (0)

Can `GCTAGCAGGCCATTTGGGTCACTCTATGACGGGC` be said to have PBM binding z-score at or above 4? no (0)

Can `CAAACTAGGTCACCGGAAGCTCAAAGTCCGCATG` be said to have PBM binding z-score at or above 4? yes (1)

Can `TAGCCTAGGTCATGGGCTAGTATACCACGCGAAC` be said to have PBM binding z-score at or above 4? yes (1)
